Field: inhibition at 1 µM. Provide a value for each of the molecules that follow.
System: Rab10 pThr73
Experiment notes: Rab10 Thr73 dephosphorylation (immunoblot) in WT MEFs
Type: cell-based, mouse
Conditions: Mus musculus, 1 μM/24 h treatment; read-out: pRab10 inhibited in WT MEFs

Parameter requested: inhibition at 1 µM. Apply to each item below.
1. CNc1nc(Nc2ccc(C(=O)N3CCN(C(=O)[C@H]4CC[C@H](CSC(C)(C)[C@H](NC(=O)C5(F)CC5)C(=O)N5C[C@H](O)CC5C(=O)NCc5ccc(-c6scnc6C)cc5)CC4)CC3)cc2OC)ncc1Cl (some centres unmarked)
2. CNc1nc(Nc2ccc(C(=O)N3CCN(C[C@@H]4CCC[C@H](CSC(C)(C)[C@H](NC(=O)C5(F)CC5)C(=O)N5C[C@H](O)C[C@H]5C(=O)NCc5ccc(-c6scnc6C)cc5)C4)CC3)cc2OC)ncc1Cl

["80 to 100%", "80 to 100%"]
